# systemName: T1, EsCas13d, nuclease-dead (Eubacterium siraeum, UniProt B0MS50, R295A;H300A;R849A;H854A)
# T1 sequence: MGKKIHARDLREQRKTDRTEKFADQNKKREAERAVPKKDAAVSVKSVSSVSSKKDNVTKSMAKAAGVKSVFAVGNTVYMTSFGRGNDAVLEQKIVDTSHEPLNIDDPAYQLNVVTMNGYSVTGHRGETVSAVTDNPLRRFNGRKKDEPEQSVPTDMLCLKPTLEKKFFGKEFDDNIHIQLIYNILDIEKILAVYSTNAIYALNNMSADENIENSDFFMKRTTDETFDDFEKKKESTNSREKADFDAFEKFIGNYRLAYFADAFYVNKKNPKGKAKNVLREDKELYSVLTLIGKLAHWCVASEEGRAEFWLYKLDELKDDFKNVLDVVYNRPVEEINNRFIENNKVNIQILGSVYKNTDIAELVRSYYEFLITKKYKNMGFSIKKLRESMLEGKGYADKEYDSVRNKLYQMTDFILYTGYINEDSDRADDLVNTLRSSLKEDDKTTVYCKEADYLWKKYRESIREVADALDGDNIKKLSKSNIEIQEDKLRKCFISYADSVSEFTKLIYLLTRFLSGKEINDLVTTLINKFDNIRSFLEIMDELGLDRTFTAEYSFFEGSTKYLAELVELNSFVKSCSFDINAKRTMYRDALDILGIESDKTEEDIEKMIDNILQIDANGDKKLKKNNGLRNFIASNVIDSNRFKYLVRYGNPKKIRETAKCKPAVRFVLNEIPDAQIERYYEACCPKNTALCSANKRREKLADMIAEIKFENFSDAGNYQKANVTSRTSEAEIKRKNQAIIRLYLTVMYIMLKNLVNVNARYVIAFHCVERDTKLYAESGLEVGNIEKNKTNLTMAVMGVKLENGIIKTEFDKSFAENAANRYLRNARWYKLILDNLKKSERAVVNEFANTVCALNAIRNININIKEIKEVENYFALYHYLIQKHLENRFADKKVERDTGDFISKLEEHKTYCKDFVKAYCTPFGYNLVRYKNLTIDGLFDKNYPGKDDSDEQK
# assayInfo: crRNA (strand 1, pre-loaded); Mg2+; 40 mM Tris-HCl pH 7.5, 150 mM NaCl, 6 mM MgCl2, 1 mM DTT, 0.1% Tween-20, 0.2 mg/ml BSA; 25 C; 10 min per concentration, then washed
# testContext: tags: His6-TwinStrep-SUMO cleaved; N-terminal SNAP kept (SNAP-Surface 488); label: 3' end held by stalled T7 RNA polymerase
Parameter: Kd. Scope: all listed entries.

Example entries begin here.
binder	Kd
target 1 MT 5'PFS ACC 3'PFS UCC (mixed) RNA 1: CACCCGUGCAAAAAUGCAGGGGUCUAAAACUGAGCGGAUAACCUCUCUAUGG RNA 2: GGGAAUGGAUCCACAUCUACGAAUUCACCCCAUAGAGAGGUUAUCCGCUCAUCCAGAUCGGAAGAGCACACGU	~21 nM
target 1 MT 5'PFS ACU 3'PFS AAU (mixed) RNA 1: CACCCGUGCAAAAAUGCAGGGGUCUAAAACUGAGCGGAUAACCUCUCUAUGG RNA 2: GGGAAUGGAUCCACAUCUACGAAUUCACUCCAUAGAGAGGUUAUCCGCUCAAAUAGAUCGGAAGAGCACACGU	~60 nM
target 1 MT 5'PFS AGG 3'PFS AGG (mixed) RNA 1: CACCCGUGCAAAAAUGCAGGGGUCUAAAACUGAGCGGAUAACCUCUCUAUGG RNA 2: GGGAAUGGAUCCACAUCUACGAAUUCAGGCCAUAGAGAGGUUAUCCGCUCAAGGAGAUCGGAAGAGCACACGU	~110 nM

For record target 1 MT 5'PFS UCG 3'PFS CAU (mixed) RNA 1: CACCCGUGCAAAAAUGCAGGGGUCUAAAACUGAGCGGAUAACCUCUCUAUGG RNA 2: GGGAAUGGAUCCACAUCUACGAAUUCUCGCCAUAGAGAGGUUAUCCGCUCACAUAGAUCGGAAGAGCACACGU the listed Kd is ~80 nM
